Data credit: PubChem BioAssay AID1508623

procedure summary: Primary qHTS for Identification of Small Molecule Inhibitors of Huntingtin Promoter Activity; note: nearly all actives have a fitted effect of over 50% in size
experimental conditions: HEK293 HTT promoter firefly luciferase reporter (activity 0% = vehicle and -100% = no light), 24 h; series mostly up to 57.5 µM
The campaign covered roughly 48,000 compounds. About 450 (0.94%) were called active. Inconclusive results (about 19%) are left out. Calls come from the whole dose curve; as a rule, active = well fitted inhibition curve with a large enough effect; inconclusive = small, poorly fitted or top-dose-only effect; inactive = no such curve, though single readings can be large or run the other way. Shown is part of a subset that was picked to be rich in actives.
Use one of these outcomes when replying: active, inactive

Check out these entries, answers already filled in.
molecule | label class
Cc1ccccc1-c1nc(CS(=O)(=O)CC(=O)NC(C)c2ccccc2)c(C)o1 (configuration not stated) | inactive
O=C(NCc1ccc(F)cc1)c1ccc2nc(N3CCCCC3)sc2c1 | active
CCOc1ccc(NC(=O)C(CC(C)C)N2Cc3ccccc3C2=O)cc1 (configuration not stated) | inactive
CCOc1ccc(NC(=O)C(=O)NCCc2csc3nc(-c4ccccc4F)nn23)cc1 | inactive

(Q) // return assay outcome for Cc1ccc(CSc2nc3cccnc3n2Cc2ccc(C(=O)NC3CC3)cc2)cc1
(A) inactive
